Test system: PLC-PRF-5 cells
method description: Inhibition of proliferation of PLC-PRF-5 cells (ATPlite)
Assay type: cell-based
experimental setup: Homo sapiens, PLC-PRF-5, PLC-PRF-5 cells; read-out: PLC-PRF-5 cell proliferation IC50
IC50 under 1000 nM gets Criterion met, anything at or over 1000 nM gets Criterion not met.

# molecule, cat
measured = [
    ("Cc1cc(NC(=O)Nc2cc(F)cc(C(C)(F)F)c2)ccc1Oc1ccnc(NC(=O)C2CC2)c1", "Criterion met"),
    ("N#Cc1cc(NC(=O)Nc2ccc(Oc3ccnc(NC(=O)C4CC4)c3)cc2)cc(C(F)(F)F)c1", "Criterion met"),
    ("CS(=O)(=O)Nc1cc(NC(=O)Nc2ccc(Oc3ccnc(NC(=O)C4CC4)c3)c(F)c2)cc(C(F)(F)F)c1", "Criterion not met"),
    ("CN1CCC(Oc2cc(NC(=O)Nc3ccc(Oc4ccnc(NC(=O)C5CC5)c4)c(F)c3)cc(C(F)(F)F)c2)C1 (stereo not drawn)", "Criterion met"),
    ("CC(F)(F)c1cncc(NC(=O)Nc2ccc(Oc3ccnc(NC(=O)C4CC4)c3)c(F)c2)c1", "Criterion met"),
    ("Cc1cc(NC(=O)Nc2ccc(Cl)c(OC(F)(F)F)c2)ccc1Oc1cc(NC(=O)C2CC2)ncn1", "Criterion not met"),
    ("N#Cc1cc(NC(=O)Nc2ccc(Cl)c(C(F)(F)F)c2)ccc1Oc1ccnc(NC(=O)C2CC2)c1", "Criterion met"),
    ("CC(N)c1cc(NC(=O)Nc2ccc(Oc3ccnc(NC(=O)C4CC4)c3)c(F)c2)cc(C(F)(F)F)c1 (stereo not drawn)", "Criterion met"),
    ("Cc1ccc(Oc2ccnc(NC(=O)C3CC3)c2)cc1NC(=O)Nc1cc(F)cc(C(F)(F)F)c1", "Criterion not met"),
    ("CC(C)Nc1cc(NC(=O)Nc2ccc(Oc3ccnc(NC(=O)C4CC4)c3)c(F)c2)cc(C(F)(F)F)c1", "Criterion met"),
    ("CC(F)(F)c1cc(F)cc(NC(=O)Nc2ccc(Oc3ccnc(NC(=O)C4CC4)c3)cc2F)c1", "Criterion met"),
    ("O=C(Nc1ccc(Oc2ccnc(NC(=O)C3CC3)c2)c(F)c1)Nc1cc(OC(F)(F)F)ccc1F", "Criterion met"),
    ("O=C(Nc1ccc(Cl)c(C(F)(F)F)c1)Nc1ccc(Oc2cc(NC(=O)C3CC3)ncn2)cc1F", "Criterion not met"),
    ("O=C(Nc1ccc(Oc2cc(NC(=O)C3CC3)ncn2)cc1)Nc1ccc(Cl)c(C(F)(F)F)c1", "Criterion not met"),
    ("Cc1cc(Oc2cc(NC(=O)C3CC3)ncn2)ccc1NC(=O)Nc1ccc(Cl)c(C(F)(F)F)c1", "Criterion not met"),
]

----------
Tested on: PLC-PRF-5 cells
method description: Inhibition of proliferation of PLC-PRF-5 cells (ATPlite)
Type: cell-based
experimental setup: Homo sapiens, PLC-PRF-5, PLC-PRF-5 cells; read-out: PLC-PRF-5 cell proliferation IC50
pIC50: −log10 of the molar value.
endpoint name: pIC50

# compound, study system, measured result
data = [
    ("CN1CCC(Oc2cc(NC(=O)Nc3ccc(Oc4ccnc(NC(=O)C5CC5)c4)c(F)c3)cc(C(F)(F)F)c2)CC1 [Exe. 164]", "PLC-PRF-5 cells", 5.53),
    ("CS(=O)(=O)c1cc(NC(=O)Nc2ccc(Oc3ccnc(NC(=O)C4CC4)c3)nc2)cc(C(F)(F)F)c1 [Exe. 130]", "PLC-PRF-5 cells", 5.30),
    ("CN1CCC(C(=O)Nc2cc(NC(=O)Nc3ccc(Oc4ccnc(NC(=O)C5CC5)c4)c(F)c3)cc(C(F)(F)F)c2)CC1 [Exe. 242]", "PLC-PRF-5 cells", 5.33),
    ("Cc1cc(Oc2ccnc(NC(=O)C3CC3)c2)ccc1NC(=O)Nc1ccc(F)c(C(F)(F)F)c1 [Exe. 191]", "PLC-PRF-5 cells", 5.60),
]

----------
Each item that follows carries a reported pIC50.
System: PLC-PRF-5 cells
method description: Inhibition of proliferation of PLC-PRF-5 cells (ATPlite)
Type: cell-based
experimental setup: Homo sapiens, PLC-PRF-5, PLC-PRF-5 cells; read-out: PLC-PRF-5 cell proliferation IC50
pIC50: −log10 of the molar value.

# compound, pIC50
records = [
    ("O=C(Nc1ccc(Oc2cc(NC(=O)C3CC3)ncn2)c(Cl)c1)Nc1ccc(F)c(C(F)(F)F)c1 [Exe. 088]", 5.69),
    ("Cc1cc(NC(=O)Nc2ccc(F)c(C(C)(F)F)c2)ccc1Oc1cc(NC(=O)C2CC2)ncn1 [Exe. 118]", 6.15),
    ("Cc1cc(Oc2cc(NC(=O)C3CC3)ncn2)ccc1NC(=O)Nc1cc(F)cc(C(C)(F)F)c1 [Exe. 083]", 4.69),
    ("CC(F)(F)c1cccc(NC(=O)Nc2ccc(Oc3cc(NC(=O)C4CC4)ncn3)c(F)c2)c1 [Exe. 103]", 6.43),
    ("Cc1ccc(Oc2ccnc(NC(=O)C3CC3)c2)cc1NC(=O)Nc1cc(C(C)(F)F)ccc1F [Exe. 227]", 4.75),
    ("O=C(Nc1cc(N2CC(F)(F)C2)cc(C(F)(F)F)c1)Nc1ccc(Oc2ccnc(NC(=O)C3CC3)c2)cc1F [Exe. 212]", 6.75),
    ("CC(F)(F)c1cc(NC(=O)Nc2ccc(Oc3cc(NC(=O)C4CC4)ncn3)c(F)c2)ccc1Cl [Exe. 105]", 5.72),
    ("Cc1cc(NC(=O)Nc2ccc(Cl)c(C(C)(F)F)c2)ccc1Oc1ccnc(NC(=O)C2CC2)c1 [Exe. 235]", 5.89),
]

----------
Each entry below carries its measured IC50, system: B-Raf kinase (Homo sapiens (Human), UniProt P15056).
Sequence (P15056 416-766): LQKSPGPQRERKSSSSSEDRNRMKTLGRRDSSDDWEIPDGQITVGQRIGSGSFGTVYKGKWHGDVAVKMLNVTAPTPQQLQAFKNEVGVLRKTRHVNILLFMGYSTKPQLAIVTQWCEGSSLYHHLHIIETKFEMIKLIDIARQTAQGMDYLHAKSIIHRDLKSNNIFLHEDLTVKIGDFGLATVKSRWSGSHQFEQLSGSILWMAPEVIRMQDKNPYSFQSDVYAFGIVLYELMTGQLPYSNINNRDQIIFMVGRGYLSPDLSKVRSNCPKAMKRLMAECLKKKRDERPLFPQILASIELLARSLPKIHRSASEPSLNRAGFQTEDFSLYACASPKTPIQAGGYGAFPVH

# compound, IC50
measured = [
    ("O=C(Nc1cc(N2CCCC2=O)cc(C(F)(F)F)c1)Nc1ccc(Oc2ccnc(NC(=O)C3CC3)c2)c(F)c1 [Exe. 052]", "13 nM"),
    ("Cc1cc(NC(=O)Nc2ccc(F)c(C(C)(F)F)c2)ccc1Oc1cc(NC(=O)C2CC2)ncn1 [Exe. 118]", "293 nM"),
    ("CN1CCC(Nc2ccc(NC(=O)Nc3ccc(Oc4ccnc(NC(=O)C5CC5)c4)c(F)c3)cc2C(F)(F)F)CC1 [Exe. 168]", "7.9 nM"),
    ("N#Cc1ccc(NC(=O)Nc2ccc(Oc3ccnc(NC(=O)C4CC4)c3)cn2)cc1C(F)(F)F [Exe. 133]", "25 nM"),
    ("CC1CN(c2cc(NC(=O)Nc3ccc(Oc4ccnc(NC(=O)C5CC5)c4)c(F)c3)cc(C(F)(F)F)c2)CC(C)O1 (stereo not drawn) [Exe. 047]", "73.6 nM"),
    ("CS(=O)(=O)c1cc(NC(=O)Nc2ccc(Oc3ccnc(NC(=O)C4CC4)c3)nc2)cc(C(F)(F)F)c1 [Exe. 130]", "29.7 nM"),
    ("CC(F)(F)c1cccc(NC(=O)Nc2ccc(Oc3ccnc(NC(=O)C4CC4)c3)cc2F)c1 [Exe. 217]", "8.9 nM"),
    ("O=C(Nc1cc(F)cc(Oc2ccnc(NC(=O)C3CC3)c2)c1)Nc1ccc(Cl)c(C(F)(F)F)c1 [Exe. 024]", "5.1 nM"),
    ("O=C(Nc1ccc(Oc2ccnc(NC(=O)C3CC3)c2)c(F)c1)Nc1cc(Cl)ccc1F [Exe. 184]", "73.4 nM"),
    ("CC(F)(F)c1cc(NC(=O)Nc2ccc(Oc3ccnc(NC(=O)C4CC4)c3)c(F)c2)ccc1F [Exe. 183]", "56 nM"),
    ("O=C(Nc1cc(N2CCS(=O)(=O)CC2)cc(C(F)(F)F)c1)Nc1ccc(Oc2ccnc(NC(=O)C3CC3)c2)c(F)c1 [Exe. 166]", "27 nM"),
    ("Cc1ccc(Oc2ccnc(NC(=O)C3CC3)c2)cc1NC(=O)Nc1ccc(Cl)c(C(F)(F)F)c1 [Exe. 030]", "18 nM"),
    ("CS(=O)(=O)Nc1cc(NC(=O)Nc2ccc(Oc3ccnc(NC(=O)C4CC4)c3)c(F)c2)cc(C(F)(F)F)c1 [Exe. 165]", "6.6 nM"),
    ("N#Cc1ccc(NC(=O)Nc2ccc(Oc3ccnc(NC(=O)C4CC4)c3)cc2)cc1C(F)(F)F [Exe. 139]", "13 nM"),
    ("Cc1cc(Oc2ccnc(NC(=O)C3CC3)c2)ccc1NC(=O)Nc1ccc(Cl)c(C(F)(F)F)c1 [Exe. 023]", "15 nM"),
    ("O=C(Nc1ccc(Oc2ccnc(NC(=O)C3CC3)c2)cc1F)Nc1cc(C(F)(F)F)ccc1F [Exe. 209]", "9 nM"),
    ("CC(F)(F)c1cc(NC(=O)Nc2ccc(Oc3ccnc(NC(=O)C4CC4)c3)cc2F)ccc1Cl [Exe. 219]", "8.3 nM"),
    ("N#Cc1ccc(NC(=O)Nc2ccc(Oc3ccnc(NC(=O)C4CC4)c3)c(F)c2)cc1C(F)(F)F [Exe. 062]", "7 nM"),
    ("O=C(Nc1ccc(Oc2ccnc(NC(=O)C3CC3)c2)nc1)Nc1ccc(Cl)c(C(F)(F)F)c1 [Exe. 020]", "19.7 nM"),
    ("Cc1cc(NC(=O)Nc2cccc(C(F)(F)F)c2)ccc1Oc1ccnc(NC(=O)C2CC2)c1 [Exe. 231]", "12.5 nM"),
    ("Cc1cc(Oc2cc(NC(=O)C3CC3)ncn2)ccc1NC(=O)Nc1ccc(F)c(C(F)(F)F)c1 [Exe. 070]", "145 nM"),
    ("CN1CCC(Oc2ccc(NC(=O)Nc3ccc(Oc4ccnc(NC(=O)C5CC5)c4)c(F)c3)cc2C(F)(F)F)CC1 [Exe. 188]", "19 nM"),
    ("CC(F)(F)c1ccc(F)c(NC(=O)Nc2ccc(Oc3cc(NC(=O)C4CC4)ncn3)cc2F)c1 [Exe. 109]", "32 nM"),
    ("Cc1cc(Oc2ccnc(NC(=O)C3CC3)c2)ccc1NC(=O)Nc1cc(OC(F)(F)F)ccc1F [Exe. 195]", "13 nM"),
    ("CN1CCC(c2cc(NC(=O)Nc3ccc(Oc4ccnc(NC(=O)C5CC5)c4)cc3)cc(C(F)(F)F)c2)CC1 [Exe. 143]", "5.5 nM"),
    ("Cc1cc(NC(=O)Nc2ccc(Cl)c(C(C)(F)F)c2)ccc1Oc1ccnc(NC(=O)C2CC2)c1 [Exe. 235]", "22 nM"),
    ("Cc1ccc(Oc2ccnc(NC(=O)C3CC3)c2)cc1NC(=O)Nc1cc(C(C)(F)F)ccc1F [Exe. 227]", "27 nM"),
    ("CN1CCN(Cc2cc(NC(=O)Nc3ccc(Oc4ccnc(NC(=O)C5CC5)c4)c(F)c3)cc(C(F)(F)F)c2)CC1 [Exe. 167]", "23.8 nM"),
    ("Cc1cc(NC(=O)Nc2ccc(Cl)c(C(F)(F)F)c2)ccc1Oc1ccnc(NC(=O)C2CC2)c1 [Exe. 031]", "25 nM"),
    ("O=C(Nc1cc(N2CC(F)(F)C2)cc(C(F)(F)F)c1)Nc1ccc(Oc2ccnc(NC(=O)C3CC3)c2)cc1F [Exe. 212]", "20.1 nM"),
]
